Tested on: adult S. mansoni
measurement_description: In vitro assay on adult S. mansoni worms in albumin-enriched medium (45 g/l)
Format: cell-based
condition: Schistosoma mansoni, 48 h, read-out: Adult IC50 with albumin
recorded_endpoint: IC50 (µM)
Quick reminder: number only, in µM, skip the unit.

# input molecule: `CC(C)(Cc1c[nH]c2ccc(Cl)cc12)NCCOc1ccccc1OCC1CC1` ; wanted: its IC50
19.1

---

measurement_description: Cytotoxicity assay on L6 cells (resazurin / Alamar Blue)
Format: cell-based
condition: rat, L6 skeletal myoblast cells; 72-hour incubation; read-out: L6 cells CC50
recorded_endpoint: CC50 at 72 h (µM)
# output: bare number, implied unit µM

I would be grateful if you could share the reported CC50 at 72 h for `Fc1ccc(Cl)cc1-c1nc(Nc2ccncc2)c2nccnc2n1` .
74.5

---

Tested on: adult S. mansoni
measurement_description: In vitro assay on adult S. mansoni worms in albumin-enriched medium (45 g/l)
Format: cell-based
condition: Schistosoma mansoni, 24 h, read-out: Adult IC50 with albumin
recorded_endpoint: pIC50
In textbook form, pIC50 equals minus log to base ten of the concentration in mol/L.

Provide the documented pIC50 with adult S. mansoni as the system for `CC(C)(Cc1c[nH]c2ccc(Cl)cc12)NCCOc1ccccc1OCC1CC1`
4.63

---

Tested on: adult S. mansoni
measurement_description: In vitro assay on adult S. mansoni worms in albumin-enriched medium (45 g/l)
Type: cell-based
condition: Schistosoma mansoni; 72 h, albumin 45 g/l; read-out: Adult IC50 with albumin
recorded_endpoint: pIC50
// pIC50 is dimensionless: -log10 of concentration (M)

Guide cases for pIC50, answers given:
- molecule_smiles: "CCOc1cc2ncc(C#N)c(Nc3ccc(F)c(Cl)c3)c2cc1NC(=O)/C=C/CN(C)C"
  pIC50: 3.91
- molecule_smiles: "CNCc1ccc(C)c(NC(=O)c2ccc(Nc3nc(-c4ccccc4)c4ccccc4n3)cc2)c1"
  pIC50: 4.27
- molecule_smiles: "CC#CC(=O)Nc1ccc2ncnc(Nc3cccc(Br)c3)c2c1"
  pIC50: 5.11

Reported pIC50, compound `Cc1ccc(C(=O)N(CCCN)[C@@H](c2nc3cc(Cl)ccc3c(=O)n2Cc2ccccc2)C(C)C)cc1` : ____
4.47

Continue with `COc1ccc(NC(=O)c2ccc(-c3ccc(-c4noc(C)n4)cc3C)cc2)cc1N1CCN(C)CC1`
5.12

Please answer likewise for `O=C(O)Cc1cccc(OCCCN(Cc2cccc(C(F)(F)F)c2Cl)CC(c2ccccc2)c2ccccc2)c1`
4.32

---

System: S. mansoni
measurement_description: In vivo efficacy in mice harbouring a chronic S. mansoni infection (worm burden)
Design: species or system Schistosoma mansoni
condition: mice, single 200 mg/kg oral dose, 49-day-old adult infection
Label T when Mean worm burden ± SD is strictly below 40; at or above that, label F.

- molecule_smiles: "O=C(O)Cc1cccc(OCCCN(Cc2cccc(C(F)(F)F)c2Cl)CC(c2ccccc2)c2ccccc2)c1"
  measured_on: "S. mansoni"
  class: "T"
- molecule_smiles: "Fc1ccc(Cl)cc1-c1nc(Nc2ccncc2)c2nccnc2n1"
  measured_on: "S. mansoni"
  class: "T"
- molecule_smiles: "CC[C@@H]1C(=O)N(C)c2cnc(Nc3ccc(C(=O)NC4CCN(C)CC4)cc3OC)nc2N1C1CCCC1"
  measured_on: "S. mansoni"
  class: "F"
- molecule_smiles: "CC#CC(=O)Nc1ccc2ncnc(Nc3cccc(Br)c3)c2c1"
  measured_on: "S. mansoni"
  class: "F"
- molecule_smiles: "CCOc1cc2ncc(C#N)c(Nc3ccc(F)c(Cl)c3)c2cc1NC(=O)/C=C/CN(C)C"
  measured_on: "S. mansoni"
  class: "F"

Please let me know if `CC(C)(Cc1c[nH]c2ccc(Cl)cc12)NCCOc1ccccc1OCC1CC1` shows Mean worm burden ± SD below 40.
F

Then `CNCc1ccc(C)c(NC(=O)c2ccc(Nc3nc(-c4ccccc4)c4ccccc4n3)cc2)c1` ?
F

---

Overview of reported CC50 at 72 h across a group of compounds:
measurement_description: Cytotoxicity assay on L6 cells (resazurin / Alamar Blue)
Assay type: cell-based
condition: rat
Enter your answer as a number in µM; do not include the unit.

- molecule_smiles: "COc1ccc(NC(=O)c2ccc(-c3ccc(-c4noc(C)n4)cc3C)cc2)cc1N1CCN(C)CC1"
  units_of_measure: "µM"
  CC50 at 72 h: 3.7
- molecule_smiles: "CC#CC(=O)Nc1ccc2ncnc(Nc3cccc(Br)c3)c2c1"
  units_of_measure: "µM"
  CC50 at 72 h: 7
- molecule_smiles: "CCOc1cc2ncc(C#N)c(Nc3ccc(F)c(Cl)c3)c2cc1NC(=O)/C=C/CN(C)C"
  units_of_measure: "µM"
  CC50 at 72 h: 11.8

Next compound, please.
# get_value(readout='CC50 at 72 h', item= `CNCc1ccc(C)c(NC(=O)c2ccc(Nc3nc(-c4ccccc4)c4ccccc4n3)cc2)c1` )
2.3

---

measurement_description: Cytotoxicity assay on L6 cells (resazurin / Alamar Blue)
Type: cell-based
condition: rat; 72-hour incubation; read-out: L6 cells CC50
recorded_endpoint: CC50 at 72 h
Could you kindly put the unit after your number?

Answered cases to consult:
- compound: "O=C(O)Cc1cccc(OCCCN(Cc2cccc(C(F)(F)F)c2Cl)CC(c2ccccc2)c2ccccc2)c1 [MMV690466]"
  observed: "1600 nM"
- compound: "CC(C)(Cc1c[nH]c2ccc(Cl)cc12)NCCOc1ccccc1OCC1CC1 [MMV690599]"
  observed: "3400 nM"

Now let's try a different one.
Would you kindly share the measured CC50 at 72 h for Nc1nc2ccc(Cl)cc2c2nc(-c3ccco3)nn12 [MMV001539] ?
2900 nM

---

Test system: newly transformed schistosomula (NTS) of Schistosoma mansoni
measurement_description: In vitro assay on newly transformed schistosomula (NTS), viability scoring by microscopy
Format: cell-based
condition: Schistosoma mansoni, 48 h, read-out: NTS IC50
recorded_endpoint: pIC50
On this scale, pIC50 is minus log10 of a concentration expressed in M (mol/L).

Bench note: what pIC50 did `Fc1ccc(Cl)cc1-c1nc(Nc2ccncc2)c2nccnc2n1` show?
4.84
